# studyTarget: Muscarinic acetylcholine receptor M1 (Homo sapiens)
# assayInfo: Partial agonist activity at human muscarinic M1 acetylcholine receptor expressed in CHO cells assessed as increase in IP1 accumulation at 10 uM incubated for 30 mins in presence of 1 uM Gq protein inhibitor UBO-QIC by FRET based HTRF assay
# Assay type: functional, cell-based
Active and inactive are the calls of the source. The calls are words filed in the database; no cut-off is given here.
observable: Activity

>  <inputSmiles>
C[N+](C)(CC#CCOC1=NOCC1)CCCCCCNC(=O)c1cn(Cc2ccccc2)c2c(F)cccc2c1=O

>  <observable>
Activity

>  <val>
inactive

$$$$
>  <inputSmiles>
C[N+](C)(CC#CCOC1=NOCC1)CCCCCCNC(=O)c1cn(Cc2ccccc2)c2ccc(F)cc2c1=O

>  <observable>
Activity

>  <val>
inactive

$$$$
>  <inputSmiles>
C[N+](C)(CC#CCOC1=NOCC1)CCCCNC(=O)c1cn(Cc2ccccc2)c2cc(Cl)c(F)cc2c1=O

>  <observable>
Activity

>  <val>
inactive

$$$$
>  <inputSmiles>
C[N+](C)(CC#CCOC1=NOCC1)CCCCNC(=O)c1cn(Cc2ccccc2)c2cc(Br)ccc2c1=O

>  <observable>
Activity

>  <val>
inactive

$$$$
